Entries annotated with measured protein stability index
B1: SMTNL2 (parent)
chain: AFTMAENLANCERLIEVEDMMVMG

- Variants of: B1
- testProtocol: protein stability index of a GFP-peptide fusion (GPS, HEK-293T) (PSI 1-6); higher = more stable;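 further: lentivirally expressed fusions sorted by FACS into six bins by GFP to DsRed ratio, PSI derived from sequencing read proportions per bin multiplied by bin number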
- recordedConditions: c terminus: a fixed tail appended
measure: protein stability index

M21L
2.39
A1Y
2.2
I15Q
4.4
D19H
1.28
A9G
3.16
M4H
3.81
V17D
3.57
A1G
1.74
E12A
1.75
M20W
2.51
V22Q
2.82
G24I
1.64
M21N
3.13
A1H
2.62
V17L
3.28
M20S
2.27
M21K
2.95
V17Y
2.47
R13E
3.96
A9C
2.48
R13C
2.08
A5T
2.83
G24E
2.93
M20G
2.47
M4A
4.14
V17A
2.54
C11D
4.07
M23Q
3.21
N7M
1.67
E18M
1.97
I15M
3
V22M
2.19
L8Q
4.06
L14Q
3.12
M20D
4.75
L8I
2.79
N10D
2.01
N7K
2.43
M4T
3.78
C11A
2.21
M21Y
2.22
V22Y
2.07
T3Y
2.06
C11V
2.75
M23D
3.57
A9P
3.84
